Measured EC50 of individual entries
Target: T1, N-term biotinylated human ACTH 1-39 (human, N-terminal biotin)
T1 construct: also called huACTH 1-39
T1 peptide: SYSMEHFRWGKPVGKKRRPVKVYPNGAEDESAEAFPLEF
Test: ELISA, biotin-ACTH 1-39 on neutravidin plate
# output: bare number, implied unit nM

Ab2 (antibody, human IgG1, kappa, N297A, V domains shown, rabbit/human chimeric antibody, made in HEK-293) VH: QSVEESGGRLVTPGTPLTLTCTVSGFSLSKYDMIWVRQAPGKGLESIGIIYDDGDTYYASWAKGRFTISQTSTTVDLKIISPTTEDTATYFCVKGVSNIWGQGTLVTVSS VL: DVVMTQTPASVEAAVGGTVTIKCQASQSISNYLAWYQQKTGQPPKLLIYSASTLASGVPSRFKGSGSGTEFTLTISDLECADAATYYCQSYEGSSSSSYGVGFGGGTEVVVKR; 0.42
Ab4 (antibody, human IgG1, kappa, N297A, V domains shown, rabbit/human chimeric antibody, made in HEK-293) VH: QSVEESGGRLVTPGTPLTLTYTVSGFSLSKHDMIWVRQAPGKGLESIGIIYDDGDTYYANWAKGRFTISKTSTTVDLKIISPTTEDTATYFCVKGVSNIWGPGTLVTVSS VL: DVVMTQTPASVEAAVGGTVTIKCRASQSISVYLAWYQQKAGQPPKLLIYQASKLASGVPSRFKGSGSGTEFTLTISDLECADAATYYCQSYDGSSSSSYGVGFGGGTEVVVKR; 0.39

GET /value?item= Ab12 (antibody, human IgG1, kappa, N297A, V domains shown, rabbit/human chimeric antibody, made in HEK-293) VH: QSVEESGGRLVTPGTPLTLTCTVSGSSLSDYDMIWVRQAPGKGLESIGIIYDDGDTYYATWAKGRFTISKTSTTVDLRIISPTTEDTATYFCVKGVSNMWGPGTLVTVSS VL: DVVMTQTPSSVSAAVGGTVTIKCQASQSIGSSLAWYQQKPGQRPKLLIYAASTLASGVPSRFKGSGSGTEFTLTISDLECADAATYYCQSYDGSSSSSYGVGFGGGTEVVVKR &field=EC50 returns 0.76

GET /value?item= Ab9 (antibody, human IgG1, kappa, N297A, V domains shown, rabbit/human chimeric antibody, made in HEK-293) VH: QSVEESGGRLVTPGTPLTLTCTVSGFSLNSYAMSWVRQAPGEGLEWIGIISDSGRTYYASWAKGRFTISKTSTTVDLKITSPTTEDTATYFCAREPEYGYDDYGDWVSDLWGPGTLVTVSS VL: DVVMTQTPASVEAAVGGTVTIKCQASQSISSYLSWYQQKPGQPPKLLIYRASTLASGVPSRFKGSGSGTQFTLTISDLECADAATYYCQSYYYSSSITYRNAFGGGTEVVVKR &field=EC50 returns 2.05

GET /value?item= Ab6 (antibody, human IgG1, kappa, N297A, V domains shown, rabbit/human chimeric antibody, made in HEK-293) VH: QSVEESGGRLVTPGTPLTLTCTVSGFSLTDYAMSWVRQAPGEGLEWIGIISDSGSTYYASWAKGRFTFSKTSTTVDLRITSPTTEDTATYFCAREPEYGYDEYGDWVSDLWGPGTLVTVSS VL: DIVMTQTPASVEAAVGGAVTIKCQATQSIGNNLAWYQQKPGQPPKLLIYRASTLASGVPSRFKGSGSGTEFTLTISDLECADAATYYCQSYYYSSSITYHNAFGGGTEVVVKR &field=EC50 returns 2

GET /value?item= Ab3 (antibody, human IgG1, kappa, N297A, V domains shown, rabbit/human chimeric antibody, made in HEK-293) VH: QSLEESGGRLVTPGTPLTLTCTVSGSSLSNFDMIWVRQAPGKGLESIGIIYDFGSTYYASWAKGRFTISRTSSTTVDLKIISPTIEDTATYFCVKGVSNIWGQGTLVTVSS VL: DVVMTQTPASVEAAVGGTVTIKCQASEDISSNLAWYQQKLGQPPKLLIYSASTLASGVPSRFKGSGSGTEFTLAISDLECADAATYYCQSYDGSSSSSYGIGFGGGTEVVVKR &field=EC50 returns 0.24

GET /value?item= Ab1 (antibody, human IgG1, kappa, N297A, V domains shown, rabbit/human chimeric antibody, made in HEK-293) VH: QSVKESGGRLVTPGTPLTLTCTVSGFSLSNYDMIWVRQAPGKGLESIGMIYDDGDTYYASWAKGRFTISKTSTTVDLKIISPTTEDTATYFCVKGVSNHWGPGTLVTVSS VL: DVVMTQTPASVEAAVGGTVTIKCQASQSISSYLAWYQQKPGQPPKLLIYSASTLASGVPSRFKGRGSGTEFTLTISDLECADAATYYCQSYDGSSGSSYGVGFGGGTEVVVKR &field=EC50 returns 0.48

GET /value?item= Ab10 (antibody, human IgG1, kappa, N297A, V domains shown, rabbit/human chimeric antibody, made in HEK-293) VH: QSVEESGGRLVTPGTPLTLTCTVSGFSLSSADMIWVRQAPGKGLESIGMIYDDGDTYYATWAKGRFTISKTSTTVDLKIISPTTEDTATYFCVKGVSSVWGQGTLVTVSS VL: DVVMTQTPASVEAAVGGTVTINCQASENIYRSLAWYQQKPGQPPKLLIYSASTLASGVPSRFKGSGSGTEFTLTISDLECADAATYYCQSYDGSSSSSYGVGFGGGTEVVVKR &field=EC50 returns 1.57

GET /value?item= Ab7 (antibody, human IgG1, kappa, N297A, V domains shown, rabbit/human chimeric antibody, made in HEK-293) VH: QSVEESGGRLVTPGTPLTLTCTVSGFSLSSYAMSWVRQAPGEGLEWIGIISDSGSTYYASWAKGRFTISKTSTTVDLRITSPTTEDTATYFCAREPEYGYDDYGDWVSDLWGQGTLVTVSS VL: DIVMTQTPASVEAAVGGTVTIKCQASQSISDYLSWYQQKPGQPPKLLIYRASTLASGVPSRFKGSGSGTQFTLTISDLECADAATYYCQSYYYSSSITYRNAFGGGTEVVVKR &field=EC50 returns 2.24

GET /value?item= Ab5 (antibody, human IgG1, kappa, N297A, V domains shown, rabbit/human chimeric antibody, made in HEK-293) VH: QSVEESGGRLVTPGTPLTLTCTVSGFSLSSYAMSWVRQAPGEGLEWIGIISDSGSTYYASWAKGRFTISKTSTTVDLKITSPTTEDTATYFCAREPEYGYDDYGDWVSDLWGQGTLVTVSS VL: DIVMTQTPASVSEPVGGTVTIKCQASQSISSYLSWYQQKPGQPPKLLIYRASTLASGVPSRFKGSGSGTQFTLTISDLECADAATYYCQSYYYSSSITYRNAFGGGTEVVVKR &field=EC50 returns 1.5
